Recorded values, source patent US20220195023A1.

Field: Kd. Provide a value for each of the binders that follow.
target: … (Plasmodium falciparum); test: BLI, target on sensor
Output spec: scalar in nM, unitless text.

Provide one value: measured Kd of AB-007056 (antibody, V domains shown) VH: QMQLVESGGGVVQPGRSLRLSCTASGFTFSTYAMHWVRQSPGQGLQWVAVISYHSTNKYYEDSVRGRFTISRDNSKNTLYLQMNSLRAEDTAVYYCARDGYQSSFFDFWGQGTLVTVSS VL: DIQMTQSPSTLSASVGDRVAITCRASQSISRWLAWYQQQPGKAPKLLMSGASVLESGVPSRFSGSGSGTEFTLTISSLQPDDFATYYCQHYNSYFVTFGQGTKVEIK
23.6

Provide one value: measured Kd of AB-007053 (antibody, V domains shown) VH: QMQLVESGGGVVQPGRSLRLSCTASGFTFSTYAMHWVRQSPGQGLQWVAVISYHSTQKYYEDSVRGRFTISRDNSKNTLYLQMNSLRAEDTAVYYCARDGYSSSFFDFWGQGTLVTVSS VL: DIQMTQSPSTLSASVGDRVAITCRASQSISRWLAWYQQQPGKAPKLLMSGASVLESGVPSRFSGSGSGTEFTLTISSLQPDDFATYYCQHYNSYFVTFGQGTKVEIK
23.5

Provide one value: measured Kd of AB-007028 (antibody, V domains shown) VH: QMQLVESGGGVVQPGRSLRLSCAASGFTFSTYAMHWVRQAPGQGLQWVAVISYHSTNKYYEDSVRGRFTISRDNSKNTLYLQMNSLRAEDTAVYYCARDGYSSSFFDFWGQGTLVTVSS VL: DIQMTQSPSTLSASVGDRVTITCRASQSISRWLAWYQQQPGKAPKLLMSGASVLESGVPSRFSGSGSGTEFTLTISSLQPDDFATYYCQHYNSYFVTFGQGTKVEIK
2.93
